Where do these numbers come from? They come from paper PMC10744391.

- Tested on: T-47D human breast cancer cell line
- assay-info: cells
- Assay type: cell-based
- test-conditions: ratio of IC50 for healthy (MCF-10A) and cancer cells
assay-readout: Selectivity Index (SI), T-47D
Write the number on its own, no unit after it.

Ask | Fill blank: measured Selectivity Index (SI), T-47D of the compound C=C(C)CCCC1(C)OC(=O)C23CCC4C(=CCC5C(C)(C)C(OC6OCC(OS(=O)(=O)O)C(O)C6OC6OC(CO)C(OC7OC(CO)C(O)C(OC8OC(CO)C(O)C(OC)C8O)C7O)C(O)C6OC6OCC(O)C(O)C6O)CCC45C)C2(C)CC(OC(C)=O)C13 (stereo not shown) [okhotoside A2-1] is ____.
Reply | 1.03

Ask | Also COC1C(O)C(COS(=O)(=O)O)OC(OC2C(O)C(COS(=O)(=O)O)OC(OC3C(C)OC(OC4C(OC5CCC6(C)C7CCC8(C)C(C(C)(O)C(=O)CC=C(C)C)CCC8(C)C7=CCC6C5(C)C)OCC(OS(=O)(=O)O)C4O)C(OC4OCC(O)C(O)C4O)C3O)C2O)C1O (stereo not shown) [djakonovioside F1] ?
Reply | 1.02

Ask | Proceed to CO[C@@H]1[C@@H](O)[C@H](O[C@@H]2[C@@H](O)[C@H](O[C@H]3[C@H](O)[C@@H](O)[C@H](O[C@H]4[C@H](O[C@H]5CC[C@]6(C)[C@@H]7CCC89C(=O)O[C@@](C)(C[C@@H](O)CC(C)C)[C@H]8[C@@H](OC(C)=O)C[C@@]9(C)C7=CC[C@H]6C5(C)C)OC[C@@H](OS(=O)(=O)O)[C@@H]4O)O[C@@H]3C)OC[C@H]2O)O[C@H](CO)[C@H]1O (stereo partly shown) [djakonovioside A1, reference compound]
Reply | 1.15

Ask | Try this compound too: COC1C(O)C(CO)OC(OC2C(O)C(CO)OC(OC3C(C)OC(OC4C(OC5CCC6(C)C7CCC89C(=O)OC(C)(CC(=O)CC(C)C)C8C(OC(C)=O)CC9(C)C7=CCC6C5(C)C)OCC(OS(=O)(=O)O)C4O)C(OC4OCC(O)C(O)C4O)C3O)C2O)C1O (stereo not shown) [cucumarioside A2-5]
Reply | 2.41

---

- Test system: triple-negative MDA-MB-231 human breast cancer cell line
- assay-info: cells
- Assay type: cell-based
- test-conditions: MTT, 24 h incubation; read-out: Cytotoxicity, IC50, MDA-MB-231
assay-readout: IC50 (µM)
# value in µM; strip the unit string

Ask | Fill blank: measured IC50 of the compound CO[C@@H]1[C@@H](O)[C@H](O[C@@H]2[C@@H](O)[C@H](O[C@H]3[C@H](O)[C@@H](O)[C@H](O[C@H]4[C@H](O[C@H]5CC[C@]6(C)[C@@H]7CCC89C(=O)O[C@@](C)(C[C@@H](O)CC(C)C)[C@H]8[C@@H](OC(C)=O)C[C@@]9(C)C7=CC[C@H]6C5(C)C)OC[C@@H](OS(=O)(=O)O)[C@@H]4O)O[C@@H]3C)OC[C@H]2O)O[C@H](CO)[C@H]1O (stereo partly shown) [djakonovioside A1, reference compound] is ____.
Reply | 12.1

---

- assay-info: in vitro
- Format: cell-based
- test-conditions: human
Exercise: state measured IC50 at 24 h for each of the compounds provided.
Provide the reading as a plain figure in µM.

Ask | Which IC50 at 24 h value is on record for C=C(C)CCCC1(C)OC(=O)C23CCC4C(=CCC5C(C)(C)C(OC6OCC(OS(=O)(=O)O)C(O)C6OC6OCC(OC7OC(CO)C(O)C(OC8OC(CO)C(O)C(OC)C8O)C7O)C(O)C6OC6OCC(O)C(O)C6O)CCC45C)C2(C)CC(OC(C)=O)C13 (stereo not shown) [djakonovioside C1] ?
Reply | 21.8

Ask | What about this compound? COC1C(O)C(COS(=O)(=O)O)OC(OC2C(O)C(COS(=O)(=O)O)OC(OC3C(C)OC(OC4C(OC5CCC6(C)C7CCC8(C)C(C(C)(O)C(=O)CC=C(C)C)CCC8(C)C7=CCC6C5(C)C)OCC(OS(=O)(=O)O)C4O)C(OC4OCC(O)C(O)C4O)C3O)C2O)C1O (stereo not shown) [djakonovioside F1]
Reply | 23.2
